# maps each entry to its sensor-assay potency score (higher = more potent)
target: BRD2; assay: pooled miR-30 sensor sort-seq; sequence = guide strand; settings: shRNA; further: reference of the scale not given here
REPORTED_ENDPOINT: sensor-assay potency score (higher = more potent)

{"columns": ["ITEM_SEQUENCE", "DATA_VALUE"],
 "data": [
  ["TTCTCATTCGCTTTCTTGGGGG", -0.27],
  ["TAAAATCTTGCATACACTCTGA", -0.097],
  ["TAGGACAATATCATCAGTGGGC", 0.486],
  ["TTGGATTATATGCACAACTCGG", -1.15],
  ["TGCAGTAACAGCAAGGAGCGGG", -0.301],
  ["TACATCAGCAGCAAACTCCTGT", 0.587],
  ["TTATTTACAAGTTAGAATCAAC", -0.816],
  ["TAATTTTGTGATAATCCGGTAG", 0.162]
]}
